System: 324938-238-R-J1-PDC complex spheroids viability
Experiment: Anticancer human tumor 324938-238-R-J1-PDC patient-derived bladder carcinoma cell line growth inhibition [CLK]
Conditions: second compound 3.16 µM; first compound 0.1 µM; stronger effect = lower value

# compound, viability, T/C (%)
measured = [
    ("O=c1[nH]cc(F)c(=O)[nH]1 + CN1CCN(c2cc(C(=O)Nc3cc4cc(-c5cnn(C)c5)ccc4cn3)ccn2)CC1", 0.15),
    ("COC1C=CCC(C)C(C)S(=O)(=O)NC(=O)c2ccc3c(c2)N(CC2CCC21)CC1(CCCc2cc(Cl)ccc21)CO3 (stereo not given) + CN1CCN(c2cc(C(=O)Nc3cc4cc(-c5cnn(C)c5)ccc4cn3)ccn2)CC1", 0.47),
    ("CC1COCCN1c1cc(C2(S(C)(=N)=O)CC2)nc(-c2ccnc3[nH]ccc23)n1 (stereo not given) + CN1CCN(c2cc(C(=O)Nc3cc4cc(-c5cnn(C)c5)ccc4cn3)ccn2)CC1", 0.15),
    ("CC(Nc1ccc2c(c1)OCCn1cc(N3C(=O)OCC3C(F)F)nc1-2)C(N)=O (stereo not given) + CNC(=O)c1ccc(Nc2nc(OC3CCCC3)c3c(-c4ccc5nc(C)oc5c4)c[nH]c3n2)c(OC)c1", 9.57),
    ("COc1c(OCCCN2CCOCC2)ccc2c3n(c(=NC(=O)c4cnc(N)nc4)nc12)CCN3 + CN1CCN(c2cc(C(=O)Nc3cc4cc(-c5cnn(C)c5)ccc4cn3)ccn2)CC1", 0.07),
]

====

Test system: 324938-238-R-J1-PDC complex spheroids viability
Assay: Anticancer human tumor 324938-238-R-J1-PDC cell line growth inhibition [CLK];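 further: viability read after seven days of drug exposure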
Details: curve of first compound; second compound 0.0316 µM
Listed below: IC50 values for each entry.
assayReadout: IC50

# compound, assayReadout, val
records = [
    ("COc1cccc2c1C(=O)c1c(O)c3c(c(O)c1C2=O)CC(O)(C(=O)CO)CC3OC1CC(N)C(O)C(C)O1 (stereo not drawn) + CN1CCN(c2cc(C(=O)Nc3cc4cc(-c5cnn(C)c5)ccc4cn3)ccn2)CC1", "IC50", "< 31.6 nM"),
    ("CC(=O)O[C@H]1C(=O)[C@@]2(C)[C@H]([C@H](OC(=O)c3ccccc3)[C@]3(O)C[C@H](OC(=O)[C@H](O)[C@@H](NC(=O)c4ccccc4)c4ccccc4)C(C)=C1C3(C)C)[C@]1(OC(C)=O)CO[C@@H]1C[C@@H]2O + CN1CCN(c2cc(C(=O)Nc3cc4cc(-c5cnn(C)c5)ccc4cn3)ccn2)CC1", "IC50", "< 31.6 nM"),
    ("COc1cccc2c1C(=O)c1c(O)c3c(c(O)c1C2=O)CC(O)(C(=O)CO)CC3OC1CC(N)C(O)C(C)O1 (stereo not drawn) + CNC(=O)c1ccc(Nc2nc(OC3CCCC3)c3c(-c4ccc5nc(C)oc5c4)c[nH]c3n2)c(OC)c1", "IC50", "< 31.6 nM"),
]
